test_context: Ebola virus entry assay, reporter ratio channel; Channel type: primary
Calls of active or inactive are those of the source.
Respond with a class label; see active, inactive

Hey, what did the test say about CC(O)COc1ccccc1 (stereo unspecified) ?
inactive

Hey, what did the test say about CCOC(=O)COc1ccc2c(C)c(CCN(CC)CC)c(=O)oc2c1Cl ?
active

Hey, what did the test say about CN(C)CCCOc1nn(Cc2ccccc2)c2ccccc12 ?
active

Hey, what did the test say about CN1CC(=O)N2[C@H](c3ccc4c(c3)OCO4)c3[nH]c4ccccc4c3C[C@@H]2C1=O ?
inactive

Hey, what did the test say about COP(=O)(OC)OC=C(Cl)Cl ?
inactive

Hey, what did the test say about CC(=O)O[C@]1(C(C)=O)CC[C@H]2[C@@H]3C=C(Cl)C4=CC(=O)CC[C@]4(C)[C@H]3CC[C@@]21C ?
active

----------
assay_notes: Primary qHTS for inhibitors of nuclear receptor binding SET domain protein 2 (NSD2) in an isogenic RCH-ACV NSD2 p.E1099K mutant (9B) (AID 1645876); note: nearly all actives have a fitted effect of over 70% in size
test_context: RCH-ACV (leukaemia line) NSD2 E1099K (9B) viability, CellTiter-Glo, 72 h; series mostly up to 44.9 µM
Inconclusive results are not listed. Activity calls are given as the source filed them. Calls come from the whole dose curve; as a rule, active = well fitted inhibition curve with a large enough effect; inconclusive = small, poorly fitted or top-dose-only effect; inactive = flat fitted curve, though single readings scatter.
Respond with a class label; see T for active, F for inactive

Hey, what did the test say about C[C@H]1CNCCc2ccc(Cl)cc21 ?
F

Hey, what did the test say about CC(CC(C(N)=O)(c1ccccc1)c1ccccc1)N(C)C (configuration not stated) ?
F

Hey, what did the test say about CCOC(=O)NC(O)C(Cl)(Cl)Cl (configuration not stated) ?
F

Hey, what did the test say about CCOC(=O)c1ncn2c1CN(C)C(=O)c1c(I)cccc1-2 ?
F

Hey, what did the test say about Nc1ccc(Cl)cc1C(=O)c1ccccc1F ?
F

Hey, what did the test say about CCOC(C(=O)OCCN(C)C)(c1ccccc1)c1ccccc1 ?
F

Hey, what did the test say about O=C(O)c1nn(Cc2ccc(Cl)cc2Cl)c2ccccc12 ?
F

Hey, what did the test say about CCCOC(=O)Cc1ccc(OCC(=O)N(CC)CC)c(OC)c1 ?
F

Hey, what did the test say about CCNc1nc(Cl)nc(NCC)n1 ?
F

Hey, what did the test say about CN(C)C(=O)Oc1cc(OC(=O)N(C)C)cc(C(O)CNC(C)(C)C)c1 (configuration not stated) ?
F

Hey, what did the test say about CCc1ccc(C2CCNCC2)cc1 ?
F

Hey, what did the test say about CCC1(c2cccc(O)c2)CCCCN(C)C1 (configuration not stated) ?
F

Hey, what did the test say about CC(C)NCC(O)c1ccc(N)c(C#N)c1 (configuration not stated) ?
F

Hey, what did the test say about COC(=O)C1=CCCN(C)C1 ?
F

Hey, what did the test say about C[N+]1(CCC(C(N)=O)(c2ccccc2)c2ccccc2)CCCCC1 ?
F

Hey, what did the test say about COc1ccc(OC)c(CC(C)N)c1 (configuration not stated) ?
F

Hey, what did the test say about CC(C)(O)C(Cl)(Cl)Cl ?
F

Hey, what did the test say about COc1ccc(CN2CCNCC2)c(OC)c1OC ?
F

Hey, what did the test say about C[N+](C)(C)CCOC(=O)C(O)(c1ccccc1)c1ccccc1 ?
F

Hey, what did the test say about O=c1n(Cl)c(=O)n(Cl)c(=O)n1Cl ?
F

Hey, what did the test say about O=C1NCN(c2ccccc2)C12CCN(CCCOc1ccc(F)cc1)CC2 ?
T

Hey, what did the test say about CCN(Cc1ccc(Cl)nc1)/C(=C/[N+](=O)[O-])NC ?
F

Hey, what did the test say about Cc1ccc([N+](=O)[O-])[c]2c1[O][Hg]2 ?
T

Hey, what did the test say about CCS(=O)(=O)C(C)(C)S(=O)(=O)CC ?
F

Hey, what did the test say about ClCCCN1CCN(c2cccc(Cl)c2)CC1 ?
F

Hey, what did the test say about O=c1[nH]c2cc(Cl)ccc2n1C1CCNCC1 ?
F

Hey, what did the test say about COc1ccc2c(C(=O)c3ccc(Cl)cc3)c(C)n(CC(=O)O)c2c1 ?
F

Hey, what did the test say about CC[C@H](O)C(C[C@H](C)N(C)C)(c1ccccc1)c1ccccc1 ?
F

Hey, what did the test say about CCC(=O)O[C@H]1CC[C@H]2[C@@H]3CCC4=CC(=O)CC[C@]4(C)[C@H]3CC[C@]12C ?
T

Hey, what did the test say about COCC(=O)N(c1c(C)cccc1C)C(C)C(=O)OC (configuration not stated) ?
F

Hey, what did the test say about CC1Sc2c(C(=O)O)c(=O)c3cc(F)c(N4CCNCC4)cc3n21 (configuration not stated) ?
F

Hey, what did the test say about CCN(CC)C(C)C(=O)c1ccccc1 (configuration not stated) ?
F

Hey, what did the test say about CCO[C@H]1O[C@@H]2OC3(C)CC[C@H]4[C@H](C)CC[C@@H]([C@H]1C)[C@@]24OO3 ?
T

Hey, what did the test say about CN1C(=O)CN=C(c2ccccc2)c2cc(Cl)ccc21 ?
F

Hey, what did the test say about ClC1=C(Cl)C2(Cl)C(CBr)CC1(Cl)C2(Cl)Cl (configuration not stated) ?
F

Hey, what did the test say about O=C(CCl)c1ccc(Cl)cc1Cl ?
F

Hey, what did the test say about C[C@H](N)[C@H](O)c1ccc(O)c(O)c1 ?
F

Hey, what did the test say about CCCCCCCCC(=O)NCc1ccc(O)c(OC)c1 ?
F

Hey, what did the test say about Cc1ncc2n1-c1ccc(Cl)cc1C(c1ccccc1F)=NC2 ?
T

Hey, what did the test say about NC1(c2ccccc2)CCCCC1 ?
T

Hey, what did the test say about CCC1(c2ccccc2)CCC(=O)NC1=O (configuration not stated) ?
F

Hey, what did the test say about C[C@]12C=CC(=O)C=C1CC[C@@H]1[C@@H]2CC[C@@]2(C)[C@H]1CC[C@]2(C)O ?
T

Hey, what did the test say about C[C@]12Cc3nonc3C[C@@H]1CC[C@@H]1[C@@H]2CC[C@@]2(C)[C@H]1CC[C@]2(C)O ?
T

Hey, what did the test say about O=C(O)Cc1ccccc1 ?
F

Hey, what did the test say about CCOC(=O)NC(C)(C)Cc1ccc(Cl)cc1 ?
F

Hey, what did the test say about O=C(O)CCCCCCNC1c2ccccc2CCc2ccccc21 ?
F

Hey, what did the test say about CC(=O)OC1(c2ccccc2)CCN(CCc2ccccc2)CC1 ?
F

Hey, what did the test say about CC(CC(C#N)(c1ccccc1)c1ccccc1)N(C)C (configuration not stated) ?
T

Hey, what did the test say about CC(Cc1ccc2c(c1)OCO2)NO (configuration not stated) ?
F

Hey, what did the test say about CC(C)C(Br)C(=O)NC(N)=O (configuration not stated) ?
F

Hey, what did the test say about Oc1ccc2[nH]cc(CCCCN3CC=C(c4ccccc4)CC3)c2c1 ?
T

Hey, what did the test say about C1CN2CCC1CC2 ?
F

----------
Test system: FAB9
assay_notes: qHTS profiling for inhibitors of Plasmodium falciparum proliferation (AID 504749); note: nearly all actives have a fitted effect of over 60% in size
test_context: P. falciparum in erythrocytes, SYBR Green DNA, 72 h; series mostly up to 28.7 µM
Records with an inconclusive call do not appear. Active and inactive are the calls of the source. The call rests on the fitted dose curve; in most records, active means well fitted inhibition curve with a large enough effect; inconclusive means small, poorly fitted or top-dose-only effect; inactive means flat fitted curve, though single readings scatter.
Respond with a class label; see True = active, False = inactive

Hey, what did the test say about O=C1NCN(c2ccccc2)C12CCN(CCCOc1ccc(F)cc1)CC2 ?
False

Hey, what did the test say about COc1ccc(C(=O)N2CCCC2=O)cc1 ?
False

Hey, what did the test say about CC(C)(C)OC(=O)c1ncn2c1[C@@H]1CCCN1C(=O)c1c(Br)cccc1-2 ?
False

Hey, what did the test say about OC(c1ccccc1)(c1ccccc1)C1CCNCC1 ?
False

Hey, what did the test say about ClC1=C(Cl)C2(Cl)C(CBr)CC1(Cl)C2(Cl)Cl (stereo unspecified) ?
False

Hey, what did the test say about O=c1n(Cl)c(=O)n(Cl)c(=O)n1Cl ?
False

Hey, what did the test say about Oc1ccc2[nH]cc(CCCCN3CC=C(c4ccccc4)CC3)c2c1 ?
False

Hey, what did the test say about CCS(=O)(=O)C(C)(C)S(=O)(=O)CC ?
False

Hey, what did the test say about CCOC(=O)NC(O)C(Cl)(Cl)Cl (stereo unspecified) ?
False

Hey, what did the test say about CC[C@]1(O)CC[C@H]2[C@@H]3CCC4=CCCC[C@@H]4[C@H]3CC[C@@]21C ?
False

Hey, what did the test say about OC(O)C(Cl)(Cl)Cl ?
False

Hey, what did the test say about CCN(Cc1ccc(Cl)nc1)/C(=C/[N+](=O)[O-])NC ?
False

Hey, what did the test say about CN(C)C(=S)SSC(=S)N(C)C ?
True

Hey, what did the test say about CC(C)C(Br)C(=O)NC(N)=O (stereo unspecified) ?
False

Hey, what did the test say about CN1CCc2cc(Cl)c(O)cc2[C@H]2c3ccccc3CC[C@@H]21 ?
False

Hey, what did the test say about COC(=O)C1=CCCN(C)C1 ?
False

Hey, what did the test say about C[N+]1(CCC(C(N)=O)(c2ccccc2)c2ccccc2)CCCCC1 ?
False

Hey, what did the test say about c1ccc2nc(N3CCNCC3)ccc2c1 ?
False

Hey, what did the test say about NC(=O)OCCCc1ccccc1 ?
False

Hey, what did the test say about Oc1c(Br)cc(Br)cc1Br ?
False

Hey, what did the test say about O=C(CCCN1CCC(n2c(=O)[nH]c3ccccc32)CC1)c1ccc(F)cc1 ?
True

Hey, what did the test say about CNC(=O)Oc1cccc2ccccc12 ?
False

Hey, what did the test say about CC(C)NCC(O)c1ccc(N)c(C#N)c1 (stereo unspecified) ?
False

Hey, what did the test say about CCCCCCCCCCCC[N+](C)(C)CCOc1ccccc1 ?
True

Hey, what did the test say about CCC1(CC)C(=O)NC(=O)NC1=O ?
False

Hey, what did the test say about O=C(NC(=O)c1c(F)cccc1F)Nc1cc(Cl)c(OC(F)(F)C(F)C(F)(F)F)cc1Cl (stereo unspecified) ?
False
